Please go through the items and note down their Normal melting temperature.
- measurement context: Crystal; DTA
Numbers after ± are expanded uncertainties.
Mention the unit after the number when you answer.

Which Normal melting temperature is listed for Oc1cccc(O)c1 ?
109.1 ± 0.4 °C

Which Normal melting temperature is listed for Nc1ccc2ccccc2c1 ?
109.5 ± 0.4 °C

Which Normal melting temperature is listed for Nc1cccc2ccccc12 ?
48.2 ± 0.4 °C

Which Normal melting temperature is listed for Nc1ccc(Cl)cc1 ?
70 ± 0.4 °C

Which Normal melting temperature is listed for Cc1ccc(O)cc1 ?
34.8 ± 0.4 °C

Which Normal melting temperature is listed for Oc1cccc2ccccc12 ?
94.8 ± 0.4 °C

Which Normal melting temperature is listed for Oc1ccc2ccccc2c1 [2-hydroxynaphthalene] ?
121.2 ± 0.4 °C

Which Normal melting temperature is listed for Oc1ccc2c(O)cccc2c1 [1,6-dihydroxynaphthalene] ?
137.1 ± 0.4 °C

Which Normal melting temperature is listed for Nc1cccc(N)c1 ?
63.0 ± 0.4 °C

---

- assay summary: Molar enthalpy of transition or fusion
- measurement context: Crystal; DSC
quantity kind: Molar enthalpy of transition or fusion (kcal/mol)
Value expressed in kcal/mol; do not type the unit.

Which Molar enthalpy of transition or fusion is listed for Oc1cccc2ccccc12 ?
5.23

Which Molar enthalpy of transition or fusion is listed for Cc1ccc(O)cc1 ?
2.81

Which Molar enthalpy of transition or fusion is listed for Nc1cccc(N)c1 ?
3.71

Which Molar enthalpy of transition or fusion is listed for Oc1ccc2ccccc2c1 [2-hydroxynaphthalene] ?
5.35

Which Molar enthalpy of transition or fusion is listed for Nc1ccc(Cl)cc1 ?
4.71

Which Molar enthalpy of transition or fusion is listed for Nc1ccc2ccccc2c1 ?
5.32

Which Molar enthalpy of transition or fusion is listed for Oc1cccc(O)c1 ?
4.82

Which Molar enthalpy of transition or fusion is listed for Oc1ccc2c(O)cccc2c1 [1,6-dihydroxynaphthalene] ?
6.17

Which Molar enthalpy of transition or fusion is listed for Nc1cccc2ccccc12 ?
3.46
